Source: patent US20260234276A1

- Measurement Target: human CCR8 (human, UniProt P51685 1-355)
- Assay Summary: cell-based or functional assay
Experimental Endpoint: hCCL1 (100 nM) residual response, Protocol #2, mAb 0.08 µg/mL

- Binder: "3-48 (antibody, V domains shown) VH: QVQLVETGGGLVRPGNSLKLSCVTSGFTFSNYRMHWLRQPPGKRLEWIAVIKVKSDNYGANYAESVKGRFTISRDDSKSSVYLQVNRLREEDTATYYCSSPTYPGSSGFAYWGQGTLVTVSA VL: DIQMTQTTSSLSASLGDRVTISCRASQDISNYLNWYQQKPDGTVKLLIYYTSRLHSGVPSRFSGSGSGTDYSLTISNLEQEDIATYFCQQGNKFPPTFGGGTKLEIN"
  Reported: "93%"

Q) Hello, please tell me recorded hCCL1 (100 nM) residual response, Protocol #2, mAb 0.08 µg/mL for this one: 3-33 (antibody, V domains shown) VH: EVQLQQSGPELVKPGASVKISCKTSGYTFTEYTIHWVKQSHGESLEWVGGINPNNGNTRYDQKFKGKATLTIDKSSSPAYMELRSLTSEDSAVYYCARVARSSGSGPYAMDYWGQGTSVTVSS VL: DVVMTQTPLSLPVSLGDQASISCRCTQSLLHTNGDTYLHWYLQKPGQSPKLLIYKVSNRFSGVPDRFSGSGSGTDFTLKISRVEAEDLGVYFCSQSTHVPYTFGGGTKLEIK
A) 104%
